test: GST conjugation activity with Atrazine (HPLC); assay type: biochemical; settings: 0.4 mM electrophilic substrate, 4 mM glutathione, 0.1 M MOPS pH 7.0, corrected for uncatalyzed reaction
Measured Activity of soybean GST enzyme, Atrazine of individual entries
Number first, unit second.

INSERT INTO results (molecule, experimental_value) VALUES
  ('se6.pk0048.d7: soybean type III GST encoded by cDNA insert in clone se6.pk0048.d7 (protein) MADEVVLLDFWPSPFGMRVRIALAEKGIKYESKEEDLQNKSPLLLKMNPVHKKIPVLIHNGKPICESLVAVQYIEEVWNDRNPLLPSDPYQRAQARFWADFVDNKIFDLGRKIWTSKGEEKEAAKKEFIEALKLLEEQLGDKTYFGGDDLGFVDIALIPFDTWFKTFGSLNIESECPKFVAWAKRCLQKDSVAKSLPDQHKVYEFIMDIRKKFDIE', '0.76 nmol/min/mg'),
  ('ses8w.pk0028.c6: soybean type III GST encoded by cDNA insert in clone ses8w.pk0028.c6 (protein) MAANQEDVKLLGATGSPFVCRVQIALKLKGVQYKFLEENLRNKSELLLKSNPVHKKVPVFIHNEKPIAESLVIVEYIDETWKNNPILPSDPYQRALARFWSKFIDDKVVGAAWKYIYTVDEKEREKNVEESYEALQFLENELKDKKFFGGEEIGLVDIAAVFIAFWIPIIQEVLGLKLFTSEKFPKLYKWSQEFINHPVVKQVLPPRDQLFAFYKACHESLSASK', '1.40 nmol/min/mg');

Now let's try a different one.
Activity of soybean GST enzyme, Atrazine measured on se1.27b04: soybean type I GST encoded by cDNA insert in clone se1.27b04 (protein) MICLHEKEVDFELVPVNVFAAEHKQPPFLSKNPFGFIPVLEDGDLTLFESRAITAYVAEKFKETEPDLIRHKDAKEAALVKVWTEVESHYYEPAVSPIIYEYFVAPFQGKEPDKSVIDTNVEKLKTVLDVYEAKLSSTKYLAGDFYSLADLSHVSETHYLMQTPCASMINELPHVKAWWEDISSRPAFNKVVGGMSFGQNH = 0.00 nmol/min/mg
